B1: C10orf62 (parent)
chain: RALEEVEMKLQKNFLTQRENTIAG

Variants of: B1
Assay: protein stability index of a GFP-peptide fusion (GPS, HEK-293T) (PSI 1-6); higher = more stable;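 further: lentivirally expressed fusions sorted by FACS into six bins by GFP to DsRed ratio, PSI derived from sequencing read proportions per bin multiplied by bin number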
Settings: c terminus: a fixed tail appended
// classify(record): look up protein stability index in ranges low class: < 3; middle class: ≥ 3 and < 4; high class: ≥ 4

[
  {
    "Variant Designation": "A2R",
    "Class": "middle class"
  },
  {
    "Variant Designation": "R18W",
    "Class": "low class"
  },
  {
    "Variant Designation": "V6R",
    "Class": "high class"
  },
  {
    "Variant Designation": "R1Y",
    "Class": "middle class"
  },
  {
    "Variant Designation": "F14Q",
    "Class": "high class"
  },
  {
    "Variant Designation": "R18F",
    "Class": "low class"
  },
  {
    "Variant Designation": "V6M",
    "Class": "middle class"
  },
  {
    "Variant Designation": "N20W",
    "Class": "low class"
  },
  {
    "Variant Designation": "I22P",
    "Class": "middle class"
  },
  {
    "Variant Designation": "V6H",
    "Class": "high class"
  }
]

Q: Class for N20P ?
A: middle class

Q: Category lookup for the variant R18A
A: middle class

Q: Just checking, what class would you give R1W here?
A: middle class

Q: In plain terms, what class is L15V ?
A: middle class

Q: Place this variant in its band: I22M
A: middle class

Q: State the band of T21C
A: middle class

Q: Hey, which category is K12W in, do you know?
A: low class
